Molecular target: T1, 4H1373-bH
T1 chain: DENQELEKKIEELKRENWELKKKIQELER
Assay: two-hybrid library CCNG1;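 note: natural log of median RNA to DNA barcode read ratio; higher means stronger binding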
Classify as follows. Reported interaction score greater than or equal to 0.2: Fulfilled. Reported interaction score below: Not fulfilled.

Some solved entries appear below for comparison.
DENQELEKKIEELERKNWELKKEIQELKR [4H1338-bH]; Not fulfilled
DENQELEKKIEELKRENWELKKKIQELER [4H1373-bH]; Fulfilled
DENQELEKENEELKREIWELEKKIQELKR [4H1222-bH]; Not fulfilled
DENQELEKKIEELKREIWELEKENQELKR [4H1348-bH]; Not fulfilled

With those in mind, consider the next binder.
// inclusive: interaction score at least 0.2? input: DENQELEKEIEELERKNWELKKEIQELER [4H1081-bH] Not fulfilled
